Readout name: flash point (°C)

molecule="O=C1CCC(=O)O1 [oxolane-2,5-dione]" readout_name="flash point" unit_name=°C experimental_result=157.00
molecule=Cc1nn(C)c(Oc2ccccc2)c1/C=N/OCc1ccc(C(=O)OC(C)(C)C)cc1 readout_name="flash point" unit_name=°C experimental_result=85.00
molecule="c1ccc2n[nH]nc2c1 [2H-benzotriazole]" readout_name="flash point" unit_name=°C experimental_result=170.00
molecule="CCN(O)CC [N,N-diethylhydroxylamine]" readout_name="flash point" unit_name=°C experimental_result=45.00
molecule="ClCCOCCCl [1-chloro-2-(2-chloroethoxy)ethane]" readout_name="flash point" unit_name=°C experimental_result=55.00
molecule="CCCCCC1OC1CC1OC1CCCCCCCC(=O)OCC(COC(=O)CCCCCCCC1OC1CC1OC1CCCCC)OC(=O)CCCCCCCC1OC1CC1OC1CCCCC (stereo unspecified)" readout_name="flash point" unit_name=°C experimental_result=307.00
molecule="CCCCOC(=O)CC(C)C [butyl 3-methylbutanoate]" readout_name="flash point" unit_name=°C experimental_result=53.00
molecule="CC(C)=CC=O [3-methylbut-2-enal]" readout_name="flash point" unit_name=°C experimental_result=37.00
molecule="CC(=O)OO [ethaneperoxoic acid]" readout_name="flash point" unit_name=°C experimental_result=41.00
molecule="CCCCCCCCC(=O)O [nonanoic acid]" readout_name="flash point" unit_name=°C experimental_result=133.00
molecule="CC1CCC(=O)O1 (stereo unspecified) [5-methyloxolan-2-one]" readout_name="flash point" unit_name=°C experimental_result=81.00

* * *

Returns YES if the recorded flash point is greater than or equal to 50 °C, and NO otherwise.

compound=CCOCCOCCO class_assignment=YES
compound=O=C=Nc1ccc(Cl)cc1 class_assignment=YES
compound=C=Cc1ccccn1 class_assignment=NO
compound=C=CC=CC class_assignment=NO
compound="CCCCOC(=O)C(C)O (configuration not stated) [butyl 2-hydroxypropanoate]" class_assignment=YES
compound=Cc1cccc(O)c1 class_assignment=YES
compound=C=CC(C)=O class_assignment=NO
compound=CC(C)[CH2][Al]([CH2]C(C)C)[CH2]C(C)C class_assignment=NO
compound="C/C=C/C=O [(E)-but-2-enal]" class_assignment=NO
compound=C=COC class_assignment=NO
compound=COc1ccccc1 class_assignment=YES
compound="C/C=C/CC#N [(E)-pent-3-enenitrile]" class_assignment=NO
compound=Cc1ccccc1Cl class_assignment=YES
compound=CCCCCC(=O)CC class_assignment=NO
compound=NCCOCCO class_assignment=YES
compound=Cc1ccc(F)cc1 class_assignment=NO
compound=OCCOc1ccccc1 class_assignment=YES
compound="CC(C)C(=O)OCC(C)(C)C(OC(=O)C(C)C)C(C)C (configuration not stated)" class_assignment=YES
compound=CC(C)(C)O class_assignment=NO
compound="CC(C)C(=O)OC(=O)C(C)C [2-methylpropanoyl 2-methylpropanoate]" class_assignment=YES
compound=C1COCOC1 class_assignment=NO
compound=CC(=O)C(C)C class_assignment=NO
compound="CC1CCCC(O)C1 (configuration not stated)" class_assignment=YES
compound="CCCCC(CC)CO (configuration not stated)" class_assignment=YES
compound=CC1=C[C@H]2C(=O)O[C@H]3C[C@@H](C/C=C(\C)C[C@@H](C)/C=C/C=C4\CO[C@H]([C@@H]1O)[C@@]42O)O[C@@]1(CC[C@H](C)[C@@H](C)O1)C3 class_assignment=NO
compound="CCCCCCCCCCCCCCCCCCOC(=O)CCCCCCCCCCCCCCC [octadecyl hexadecanoate]" class_assignment=YES
compound=CC(C)CN class_assignment=NO
compound="CC(=O)OC(C)CC(C)C (configuration not stated) [4-methylpentan-2-yl acetate]" class_assignment=NO
compound=CCCCCCCCCCCCCCCCCCN class_assignment=YES
compound=C[CH2][Al]([CH2]C)[CH2]C class_assignment=NO
compound=[CH3][Hg][CH3] class_assignment=NO
compound="CC(O)CC(C)(C)O (configuration not stated)" class_assignment=YES
compound="C1=COCCC1 [3,4-dihydro-2H-pyran]" class_assignment=NO
compound=CCCCCCCCCCCCCCCCC class_assignment=YES
compound="O=c1ccc(=O)[nH][nH]1 [1,2-dihydropyridazine-3,6-dione]" class_assignment=YES
compound="O=C(O)CCP(CCC(=O)O)CCC(=O)O [3-[bis(2-carboxyethyl)phosphanyl]propanoic acid]" class_assignment=YES
compound="CC(O)C(=O)O (configuration not stated) [2-hydroxypropanoic acid]" class_assignment=YES
compound=CC(C)(C)CCCCCC(=O)O class_assignment=YES
compound="CC(=O)OCCC(C)C [3-methylbutyl acetate]" class_assignment=NO
compound=CCCCC(Cl)Cl class_assignment=NO
compound="C=CC(=O)OCC [ethyl prop-2-enoate]" class_assignment=NO
compound="COC(=O)C(Cl)Cl [methyl 2,2-dichloroacetate]" class_assignment=YES
compound="CC(C)OB(OC(C)C)OC(C)C [tripropan-2-yl borate]" class_assignment=NO
compound=CC(C)=CCl class_assignment=NO
compound=CCCOCCCO class_assignment=YES
compound=N#CCCl class_assignment=NO
compound=CCOC class_assignment=NO
